Experiment: Novel Modifiers of Survival Motor Neuron (SMN) Protein: Gene Identification via Genome-wide siRNA Screen;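 further: luminescence tracks full-length SMN protein made from the SMN2 reporter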
Settings: HEK293T SMN2-luciferase reporter, siRNA knockdown, 72 h; actives lie on both sides
Procedure: Spinal muscular atrophy (SMA) is the most common neuromuscular autosomal recessive disorder and one of the leading genetic causes of infant death. […] Briefly, 1 pmol of each siRNA was spotted to a well of a 384-well plate (Corning, Corning, NY) and 20 microL of serum-free DMEM containing […] of Lipofectamine RNAiMax (Life Technologies, Carlsbad, CA) was then added to each well. […] Raw luminescence reads were normalized to Ambion(R) Silencer(R) Negative Control #2 siRNA, then log10 transformed. […]
The campaign covered roughly 31,000 sequences. About 1,400 (4.5%) were called active.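 How the source made its calls: active means median seed-adjusted z-score above 1 or below -1; inactive means the rest.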 The sample as a whole holds a higher share of actives than the screen did.
Assign a class; possible classes are active, inactive

Please let me know the test result on file for GAGACCCUCUGGUUAUAGATT against FKBP11 .
inactive

Also check GAAUGGACUGGUACCUAUUTT against ALDOB
active

Also check AAAUGGAUGAGUUGCAAUUTT against PITX1
inactive

Also check GUACCGAGAGAAUAACAAATT against SYP
inactive

Also check GGAUCUCAUGCACAUCUCATT against PLA2G6
inactive

* * *

Experiment: Novel Modifiers of Survival Motor Neuron (SMN) Protein: Gene Identification via Genome-wide siRNA Screen;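 further: luminescence tracks full-length SMN protein made from the SMN2 reporter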
Details: HEK293T SMN2-luciferase reporter, siRNA knockdown, 72 h; actives lie on both sides
Description: Spinal muscular atrophy (SMA) is the most common neuromuscular autosomal recessive disorder and one of the leading genetic causes of infant death. […] Briefly, 1 pmol of each siRNA was spotted to a well of a 384-well plate (Corning, Corning, NY) and 20 microL of serum-free DMEM containing […] of Lipofectamine RNAiMax (Life Technologies, Carlsbad, CA) was then added to each well. […] Raw luminescence reads were normalized to Ambion(R) Silencer(R) Negative Control #2 siRNA, then log10 transformed. […]
In all, about 31,000 sequences went through this assay and about 1,400 (4.5%) were called active.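 Rule for the calls: active = median seed-adjusted z-score above 1 or below -1; inactive = the rest.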 The sample as a whole holds a higher share of actives than the screen did.
Assign a class; possible classes are active, inactive

Please let me know the test result on file for CACCGACAAUAUAAAGGAATT against SLC25A32 .
inactive

Also check AGAGAGUGGUUUUUCCUCCTT against WWP2
inactive

Also check CGGUUACGAUAAUGCGUUATT against ENPP5
inactive

Also check GCCCAUUACUUUACCACUUTT against METTL4
inactive

Also check CCAAGAAACUGCGAGACAATT against CNGA2
inactive

Also check GGACGACCACGGCUACAUUTT against CRYAA
active

Also check CAGUUAAAGGUCAAGAUAATT against PI3
inactive

Also check CCAUAACCGCCACACCCUUTT against GPR153
active

Also check GGUUCGAGGUAAACCCUAATT against CTPS2
active

Also check GCAGUUGGAGAGAUAAUAATT against VRK1
inactive

Also check GACUACCAGUUGAUCAUGUTT against TTBK1
inactive

* * *

Answer each item with its documented median seed-adjusted z-score.
assay: Novel Modifiers of Survival Motor Neuron (SMN) Protein: Gene Identification via Genome-wide siRNA Screen; settings: HEK293T SMN2-luciferase reporter, siRNA knockdown, 72 h; actives lie on both sides;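 further: luminescence tracks full-length SMN protein made from the SMN2 reporter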
Hit rate of the full screen: of about 31,000 sequences, about 1,400 (4.5%) were called active. Shown is part of a subset that was picked to be rich in actives.
Give the value as a plain number.

Field request: median seed-adjusted z-score | item: GGUGUUGUCUUGAGGUACATT against ADAMTS1
0.173

Also check GCAUAACUGUAGACUACAATT against ADAM32
1.75

Also check UGGACUUCGUGGUUCAGCATT against SULT1A1
-0.26

Also check CCCUCAUCAAGAACUUUCATT against S100A14
0.0172

Also check CAGCAGAGCCGAUCCAAGATT against GPR37L1
-0.0348

Also check GACUCAAUGGUUUGCAUUATT against CTDP1
-2.29

Also check CCUCGAUAUUUUAACCUUUTT against EID2
-1.04

Also check CACUUAUACUAAGCACCAATT against CCNB1
0.163

Also check GGACGAUGCUGAUACGGUATT against NOP2
1.15

Also check CUCCUACAGUGCUAUCAGATT against ENPP2
-0.305

Also check CUAUGAGGAAUGUCGCAGATT against XPO1
1.12

Also check CCAUUACAGAGGGAGUUCATT against NRBP1
-1.13

Also check CGUCAGCUAUGUAAUGUUUTT against SLC22A7
-0.387

Also check GGCUUUUAGCCUGAAGAAATT against PRDM5
-0.463

Also check GCAGGAUUGUGAUCCACCATT against PCGF3
0.876

Also check CAUCAUUACCAGAGCUACATT against RLN1
0.0637

Also check GGCUGAAUUAUGACCGGAATT against PPFIA4
0.0399

Also check GCUAGACCGACCCACCAUATT against FKBP6
-1.12

Also check GAUCACGUUUGACAACAAATT against MCOLN1
-0.522

Also check GAGAGACCCUCGUCCUUUATT against CYP20A1
-0.796

Also check GCUACAUCCUGUUCGAGAATT against CYP27A1
-0.391

Also check GCCGCCAAGUAAAGCCUUATT against HSPB1
0.693

Also check AAUCACAACUCCUAAAAGATT against POLR2J3
-5.42

Also check GUGAUAAAGUGAUAAGAUUTT against CPA6
0.343

Also check CAUCGUCUCUGCUGACAAATT against TUBAL3
1.05

Also check GGAUGAAGAACGAAUGGUATT against ENDOD1
-0.138

Also check ACACCUCACUCAUCCUCUUTT against GNAZ
-0.604

Also check GUGUGGUCAUUCAACUUGATT against ZNF324B
0.176

Also check CCGGAGAUGGAUGAAUCUATT against ICAM5
-1

Also check GAUCAUCUCUGAAACAGCATT against GYG1
0.119

Also check GAUUACCCUUAGAUCAUAUTT against NARG1
-1.02

Also check CAAAACUAGUAAUCCUUAUTT against CDK8
-1.47

* * *

experiment: Novel Modifiers of Survival Motor Neuron (SMN) Protein: Gene Identification via Genome-wide siRNA Screen; details: HEK293T SMN2-luciferase reporter, siRNA knockdown, 72 h; actives lie on both sides;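 further: luminescence tracks full-length SMN protein made from the SMN2 reporter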
The campaign covered roughly 31,000 sequences. About 1,400 (4.5%) were called active. Shown is part of a subset that was picked to be rich in actives.
recordedEndpoint: median seed-adjusted z-score
Give the value as a plain number.

Field request: median seed-adjusted z-score | item: AUACUGACUUCAUAGAAAATT against RGS2
0.00236

Also check UGGUGAAAAUUACAUCUGATT against CIP29
-1.18

Also check GAACUAGGAUUUCAUAGCATT against LGR5
0

Also check AGAGAUACUUCUUAAAUCATT against YAP1
-0.247

Also check GCACGAUAUUAUGAUCCAATT against PPAT
-1.51

Also check CAACAGGUAUAACUACAUATT against CNDP2
0.43

Also check GAACCAUGGAUGGUGAUAATT against ZNF287
0.0213

Also check GAUUGCAGCCAAUCCCUUUTT against TBX6
0.144

Also check GCGUGAAUGAGGUGGAUUATT against ETNK2
-0.74

Also check AGAUGGUCCAAGAUCCAGATT against CHRM4
-0.856

Also check AAUUGAGGAAUACAAAAGATT against PAX3
0.0223

Also check GACUUUCACAGUUCACCGATT against KCTD3
0.603

Also check CGCGUUCUUCGAUAUGGUATT against PCDHGB6
0.34

Also check GUGCGAUUCUGGAUGACAATT against EVI1
0

Also check CGUUGUUUUUGAGCACGUUTT against LMBR1
0.236

Also check GAACUUAUAAGUGCAGCAATT against ZNF547
0.099

Also check GGUCUUCAGUGAACAGUUUTT against ZNF562
-0.0954

Also check GGGAAUAUCUCUUCCGACATT against ACTL7A
1.1

Also check CAACUACAACUGUGAGAUUTT against SF3A3
-2.1

Also check CGCGGUGCAUAUGAAGAUATT against PIGM
1.36

* * *

experiment: Novel Modifiers of Survival Motor Neuron (SMN) Protein: Gene Identification via Genome-wide siRNA Screen; conditions: HEK293T SMN2-luciferase reporter, siRNA knockdown, 72 h; actives lie on both sides;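 further: luminescence tracks full-length SMN protein made from the SMN2 reporter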
Hit rate of the full screen: of about 31,000 sequences, about 1,400 (4.5%) were called active.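 Rule for the calls: active = median seed-adjusted z-score above 1 or below -1; inactive = the rest.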 Many of the other results were omitted from the sample, so actives are more common in it than they were.
Assign a class; possible classes are yes (active), no (inactive)

Please let me know the test result on file for CGCCUACACUCCUACGUGUTT against ZDHHC24 .
no

Also check CGACAGAGGCAGACACAGATT against BATF
no

Also check CCGGCAAGAUUAUCGAGUATT against HCFC1
yes

Also check GAUCUGAGCUUGUACAGAATT against PSMC2
yes

Also check AGUGCGCCCAGAAUCUAAATT against ZNF689
no

Also check GCUGGUACCCUGGAGGAAATT against GNRH2
yes

Also check CUAACGAAGAUUCACCCAATT against ASPN
no

Also check GCAUACAUAUGGUAUAGCATT against DDX20
no

Also check GGCUUUCAUUGAGCAGGAATT against ATP6V1E2
no

Also check CUCUUUCAAGUAUGAGACATT against INHA
no

Also check AGACAGUGUGGGUCCUGGATT against CD300E
no

Also check GCUCAACUCUCAUUCGGCATT against ZNF550
no

Also check CUAUUGUAAAAGUAUGGAATT against ARL6IP2
no

Also check GGCUAUUAUUGACAUGGUUTT against PDE8B
no

Also check ACUCCUCUCUGUUAAUGGATT against LIN7C
no

Also check CGAUAUUUAUCCUUACCUATT against SLC9A2
yes

Also check GUAUCUCAACAUCAAACUATT against LSM2
yes

Also check GAAUCCUGAUGGGUAUGAATT against CPD
no

Also check CGAUAUGGAAAAUCCCUAUTT against ANXA10
no

Also check CACCUGUACUUAUCCCGAATT against MEGF10
no

Also check UGAUCGCCUUGGUGAUUCATT against FOXH1
no

Also check GAAACGAACUGGGCAGUAUTT against FGF2
no

Also check UAAUGACCCUAUCUAUAAATT against UGT2B17
no

Also check AACAGUAUCUUUCAGAAUATT against TMPRSS5
yes
